Where do these numbers come from? They come from PubChem BioAssay AID2716.

assay: restored growth of temperature-sensitive Mot1-301 yeast – S. cerevisiae, ATP luminescence, 38.5C, SUMOylation pathway inhibitor project, primary screen (AID 2716);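 also: OY570 slx delta 5 strain wells were the positive control but not used for scaling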; settings: S. cerevisiae Mot1-301 growth rescue, at 18.8 µM, stronger effect = higher value, percent above DMSO median, 100 means doubled
The whole screen tested about 320,000 compounds, of which about 3,300 (1%) were called active. The full list was thinned out, with actives kept by preference.
growth rescue values, listed per item
// return numeric value only (unit: %, not printed)

// known answers, use as guide
# compound, growth rescue / %
data = [
    ("CCOc1ccc(C(C(=O)NCCOC)N(CCOC)C(=O)CCC(=O)Nc2ccccn2)cc1 (stereo unspecified)", 0.544),
    ("O=C(CSCc1cccs1)N1CCCC1", -5.87),
    ("COc1ccc(S(=O)(=O)NC(C)C(=O)Nc2cccc([N+](=O)[O-])c2)cc1 (stereo unspecified)", -16.6),
]

Moving on to another compound below.
Summary for this compound, COCCNC(=O)C(c1ccc(O)cc1)N(C(=O)CCC(=O)Nc1nccs1)c1ccc(C)cc1 (stereo unspecified) : growth rescue is -11.3
